Test system: Mycobacterium avium
assay comment: Inhibition of growth of Mycobacterium avium (ATCC 25291) was determined using microplate alamar blue assay at 100 ug/mL concentration with compound dissolved in DMSO
Format: functional
measured attribute: inhibition at 100 µg/mL (%)

compound structure string	measured attribute	result number
CCCCCC#Cc1cn([C@H]2C[C@H](O)[C@@H](CO)O2)c(=O)[nH]c1=O	inhibition at 100 µg/mL	25
CCCCCCCCC#Cc1cn([C@H]2C[C@H](O)[C@@H](CO)O2)c(=O)nc1N	inhibition at 100 µg/mL	75
CCCCCCCCCCC#Cc1cn([C@H]2C[C@H](O)[C@@H](CO)O2)c(=O)[nH]c1=O	inhibition at 100 µg/mL	75
CCCCCCCCC#Cc1cn([C@H]2C[C@H](O)[C@@H](CO)O2)c(=O)[nH]c1=O	inhibition at 100 µg/mL	30
CCCCCCCCCCCCC#Cc1cn([C@H]2C[C@H](O)[C@@H](CO)O2)c(=O)[nH]c1=O	inhibition at 100 µg/mL	75
CCCCCCCCCCC#Cc1cn([C@H]2C[C@H](O)[C@@H](CO)O2)c(=O)nc1N	inhibition at 100 µg/mL	100
